- Tested on: MS2 coat protein
- assayMethodText: apparent KD of MS2 coat protein; higher = weaker reporter binding
- conditionDetails: Eterna round: R107; input ligand: arginine 13.2 mM

# polymerSequence, measureUnit, apparent KD of MS2 coat protein
data = [
    ("AAACGUUGCUGCGAUACCAGACAUGAGGAUCACCCAUGUACCAAGGUAACCGAAAGGCAUGUCCCUUGGCAGCGCAGCAACGAAA [MAT - Exclusion Theophlline B - Mod of Eli - D17]", "nM", 14.8),
    ("AGACAUGAGGAUCACCCAUGUAGUACGGAUACCAGAUCCAGAUGUAUCCCUUGGCAGCUGUGGUACAGCGUUACAUCGCUCCUAG [Exclusion - Theophylline A (Freestyle 20)]", "nM", 15.9),
    ("UUCGUUUGCGGAAGGAGCGACGGACAUCGGUGAACGACGGACAUGAGGAUCACCCAUGUACGUCAGGUAGGUCGCCGCUAAGAGU [Enbiceri]", "nM", 13.7),
    ("AGCAAGCAACAUGAGGAUCACCCAUGUGAAGGAGCGCCGAAUAAGGCAGGUAGGUCGCACAUGAAUAAAUCAUGUAAAAGCUUGC [MAT - Exclusion Arginine A - Mod of Eli - D23]", "nM", 104),
    ("AGAGUUAGACAAAAGUCUAGCUCACCAGAAGGAGCGUCCGAAAGGACAGGUAGGUCGCUGGUGCACGAGGAUCACCCGUGUUCCU [ArgAS 21 #OpenEnded #AlternativeMS2]", "nM", 57.9),
    ("UUAAUCUUUAUUGAAAACAAUAAAGCAGAAGGAGCGUGAUAAAACACAGGUAGGUCGCUGAAGGGAACAUGAGGAUCACCCAUGU [AstrosSSArgA#13]", "nM", 36.4),
    ("UACAUAUGCCGAAGGAGCGCGAGAUGCAAAGCAUCAUUCCUCACAUGAGGAUCACCCAUGUCGCAGGUAGGUCGCGGCAUAUGUU [ArgBX]", "nM", 46.7),
    ("AACAAUGCACAUGAGGAUCACCCAUGUGAUACCAGCCGCAACAUAGGCCCUUGGCAGCAUGUGGGUAUAGAACGAUUUGGCUGAA [Xeanle]", "nM", 24.4),
    ("ACACCGAAAGGUGCAUUUUCCUUUUCAGAUACCAGACUUUACGUUGUCCCUUGGCAGCUGUAUCACAUGAGGAUCACCCAUGUUG [JR_SSTheophyA_Sub012]", "nM", 16),
    ("AGAUUCGACACGGCCGCCACUCGUGACAGAUUUCGCAGUGGUCAACAUGAGGAUCACCCAUGUCUGAGGACCGGGUGUUGAGUCU [XTryp B #9]", "nM", 36.4),
    ("AUCUCGUUCAAUAUACCGCCUUGACUAGAUACCAGCAUGGACCCAUGCCCUUGGCAGCUGGACAUGAGGAUCACCCAUGUUUCAG [SSTheo A #27]", "nM", 10.7),
    ("AUAGUCUAGAGUGAUACCAGACAACAUGAGGAUCACCCAUGUAGCAUAUGGUUAUCAUGAGUCCCUUGGCAGCACGCAUGUAUAG [JR_ExcTheophyB_Sub012]", "nM", 13.4),
]
